Please provide measured OD at 405 nm for the entries that follow.
Molecular target: T1, non-structural 3 protein (NS3) of the hepatitis C virus (HCV) (hepatitis C virus)
T1 construct: Control antigen; also called HCV NS3
Assay: EIA, support-bound peptide, HCV NS3 control
A bare number is not enough; add the unit after it.

Noted for LVTVSAAKTTPPSVYPLVPV (also called Peptide # 35) [LVTVSAAKTTPPSVYPLVPV (SEQ. ID. No. 38)] : its OD at 405 nm reads 0.032 OD

Noted for VKLQQSGTEVVKPGASVKLS (also called Peptide # 1) [VKLQQSGTEVVKPGASVKLS (SEQ. ID. No. 4)] : its OD at 405 nm reads 0.021 OD

Noted for KRADAAPAVSIFPPSSKLG (also called Peptide # 23) [KRADAAPAVSIFPPSSKLG (SEQ. ID. No. 26)] : its OD at 405 nm reads 0.021 OD

Noted for TSSYSYMHWYQQKPGQPPKL [TSSYSYMHWYQQKPGQPPKL (SEQ. ID. No. 18)] : its OD at 405 nm reads 0.028 OD
